Target: AgBzz1-D1
Assay: SPOT peptide array binding signal intensity (averaged, normalized) (arbitrary units (background-subtracted, floor 0; scale differs between SH3 domains)); higher = stronger binding of the SH3 domain to the peptide
Hi there, I'd appreciate the recorded SPOT peptide array binding signal intensity for every entry that follows.
Answers are plain numbers.

Sample records with SPOT peptide array binding signal intensity:
>  <binder>
KNRKNLPTIPIRLSG

>  <number>
104

$$$$
>  <binder>
KIRRSSLMIPNPQQF

>  <number>
18.5

$$$$
>  <binder>
GAGERPRLVPRPINV

>  <number>
27

$$$$

For every item in the list below, what is its measured SPOT peptide array binding signal intensity?
1. TSIEIPKRSPLRFTS
2. QTREPNEPPPPSPAM
3. APKREAPKPPANTSP

27
1.5
178
